- Tested on: Lolium perenne
- assayMethodText: Herbicidal activity against Lolium perenne (perennial ryegrass) assessed as growth inhibition at 1 kg/ha preemergence treatment by glasshouse test
- Format: functional
- details: pre-emergence, read-out: GI
Short version: inhibition of growth at 1000 g/ha at least 50% is yes (1), less is no (0).

CCNc1nc(NC(C)C)nc(SC)n1: yes (1)

Kindly review the next compound as well.
INPUT: # check: inhibition of growth at 1000 g/ha of `CC(C)Nc1nc(Cl)nc(NCc2ccc(Cl)nc2)n1` is greater than or equal to 50%
OUTPUT: yes (1)

---

- Test system: Botrytis cinerea
- assayMethodText: Fungicidal activity against Botryotinia fuckeliana assessed as inhibition of mycelia growth at 2 ppm
- Type: functional, organism-based
Calls of active or inactive are those of the source. No cut-off for these calls is given here.
Valid outcomes are listed here; reply with one: active, inactive

CSc1nc(NCc2ccc(F)cc2)nc(NC(C)C)n1: inactive
CSc1nc(NCc2ccc(Cl)nc2)nc(NC(C)C)n1: active
CC(C)Nc1nc(Cl)nc(NCc2ccc(Cl)nc2)n1: inactive

INPUT: What was the test verdict on `CC(C)Nc1nc(Cl)nc(NCc2ccc(F)cc2)n1` ?
OUTPUT: active

INPUT: # fetch the recorded call for `CC(C)Nc1nc(Cl)nc(NCc2cnc(Br)s2)n1` here
OUTPUT: inactive

INPUT: Dear all, I need the recorded test outcome for CCNc1nc(Cl)nc(NC(C)C)n1 [ATRAZINE] , thank you.
OUTPUT: inactive

---

- System: Phytophthora infestans
- assayMethodText: Fungicidal activity against Phytophthora infestans assessed as inhibition of mycelia growth at 200 ppm
- Type: functional, organism-based
Activity calls are given as the source filed them. No cut-off for these calls is given here.
measurementLabel: inhibition

// worked examples, inhibition included
CC(C)Nc1nc(Cl)nc(NCc2ccc(Cl)nc2)n1: inactive
CSc1nc(NCc2ccc(F)cc2)nc(NC(C)C)n1: inactive
CSc1nc(NCc2ccc(Cl)nc2)nc(NC(C)C)n1: inactive
CSc1nc(NCc2cc(-c3ccccc3)no2)nc(NC(C)C)n1: inactive
CC(C)Nc1nc(Cl)nc(NCc2cc(-c3ccccc3)no2)n1: inactive
CCNc1nc(NC(C)C)nc(SC)n1: inactive
CCNc1nc(Cl)nc(NC(C)C)n1: inactive
CC(C)Nc1nc(Cl)nc(NCc2ccc(F)cc2)n1: inactive

INPUT: Identify inhibition associated with the compound `CC(C)Nc1nc(Cl)nc(NCc2cnc(Br)s2)n1`
OUTPUT: inactive

---

- System: Lolium perenne
- assayMethodText: Herbicidal activity against Lolium perenne (perennial ryegrass) assessed as growth inhibition at 1 kg/ha postemergence treatment by glasshouse test
- Assay type: functional
- details: post-emergence, read-out: GI
Listing of entries alongside the reported inhibition of growth at 1000 g/ha.
Provide the reading as a plain figure in %.

INPUT: Under Lolium perenne, report inhibition of growth at 1000 g/ha for `CCNc1nc(NC(C)C)nc(SC)n1`
OUTPUT: 100

INPUT: Give Lolium perenne inhibition of growth at 1000 g/ha for the following molecule: `CC(C)Nc1nc(Cl)nc(NCc2ccc(Cl)nc2)n1`
OUTPUT: 80

INPUT: Under Lolium perenne: report inhibition of growth at 1000 g/ha of `CSc1nc(NCc2ccc(Cl)nc2)nc(NC(C)C)n1` .
OUTPUT: 50

INPUT: Give reported inhibition of growth at 1000 g/ha for `CSc1nc(NCc2ccc(F)cc2)nc(NC(C)C)n1` (Lolium perenne)
OUTPUT: 80

INPUT: Given O=C(O)CNCP(=O)(O)O [GLYPHOSATE] , report its inhibition of growth at 1000 g/ha on Lolium perenne.
OUTPUT: 80

INPUT: Name the recorded inhibition of growth at 1000 g/ha of `CC(C)Nc1nc(Cl)nc(NCc2ccc(F)cc2)n1` , assay system Lolium perenne.
OUTPUT: 50

INPUT: Specify inhibition of growth at 1000 g/ha for `CCNc1nc(Cl)nc(NC(C)C)n1` , system Lolium perenne.
OUTPUT: 100

---

- Test system: Digitaria sanguinalis
- assayMethodText: Herbicidal activity against Digitaria sanguinalis (hairy crabgrass) assessed as growth inhibition at 1 kg/ha preemergence treatment by glasshouse test
- Format: functional
- details: pre-emergence, read-out: GI
measurementLabel: inhibition of growth at 1000 g/ha (%)
// note: answer is a bare numeric in %

Past entries and their recorded results:
CC(C)Nc1nc(Cl)nc(NCc2ccc(Cl)nc2)n1: 0
CCNc1nc(NC(C)C)nc(SC)n1 [AMETRYNE]: 90
CC(C)Nc1nc(Cl)nc(NCc2ccc(F)cc2)n1: 70
O=C(O)CNCP(=O)(O)O [GLYPHOSATE]: 0
CSc1nc(NCc2ccc(F)cc2)nc(NC(C)C)n1: 0

INPUT: Return value of inhibition of growth at 1000 g/ha for input `CSc1nc(NCc2ccc(Cl)nc2)nc(NC(C)C)n1` , no commentary.
OUTPUT: 0

INPUT: State its inhibition of growth at 1000 g/ha: CCNc1nc(Cl)nc(NC(C)C)n1 [ATRAZINE]
OUTPUT: 0

---

- Test system: Stellaria media
- assayMethodText: Herbicidal activity against Stellaria media assessed as growth inhibition at 1 kg/ha postemergence treatment by glasshouse test
- Format: functional
- details: post-emergence, read-out: GI
measurementLabel: inhibition of growth at 1000 g/ha (%)
Give just the number in %; leave the unit off.

Worked examples follow.
CSc1nc(NCc2ccc(Cl)nc2)nc(NC(C)C)n1: 100
CC(C)Nc1nc(Cl)nc(NCc2ccc(F)cc2)n1: 90

INPUT: Quote inhibition of growth at 1000 g/ha reported for `CSc1nc(NCc2ccc(F)cc2)nc(NC(C)C)n1` please.
OUTPUT: 100

INPUT: Give recorded inhibition of growth at 1000 g/ha. O=C(O)CNCP(=O)(O)O [GLYPHOSATE]
OUTPUT: 80

INPUT: Return reported inhibition of growth at 1000 g/ha. Input compound: `CCNc1nc(NC(C)C)nc(SC)n1`
OUTPUT: 100

INPUT: Give me measured inhibition of growth at 1000 g/ha, please, for this compound: `CC(C)Nc1nc(Cl)nc(NCc2ccc(Cl)nc2)n1`
OUTPUT: 100

INPUT: Quickly give me recorded inhibition of growth at 1000 g/ha for `CCNc1nc(Cl)nc(NC(C)C)n1`
OUTPUT: 100

---

- Tested on: Lolium perenne
- assayMethodText: Herbicidal activity against Lolium perenne (perennial ryegrass) assessed as growth inhibition at 1 kg/ha preemergence treatment by glasshouse test
- Type: functional
- details: pre-emergence, read-out: GI
Outcome label depends on inhibition of growth at 1000 g/ha relative to 50%: at/above gives satisfied, below gives not satisfied.

INPUT: Item `CC(C)Nc1nc(Cl)nc(NCc2ccc(F)cc2)n1` with inhibition of growth at 1000 g/ha of 50% or above?
OUTPUT: not satisfied

INPUT: Quick check, inhibition of growth at 1000 g/ha >= 50%? CCNc1nc(Cl)nc(NC(C)C)n1 [ATRAZINE]
OUTPUT: satisfied

INPUT: Is reported inhibition of growth at 1000 g/ha greater than or equal to 50% here: `CSc1nc(NCc2ccc(Cl)nc2)nc(NC(C)C)n1`
OUTPUT: not satisfied

INPUT: Given O=C(O)CNCP(=O)(O)O [GLYPHOSATE] , state whether its inhibition of growth at 1000 g/ha is at least 50%.
OUTPUT: not satisfied
